Tested on: ATS95
PROTOCOL SUMMARY: qHTS profiling for inhibitors of Plasmodium falciparum proliferation (AID 504749); note: nearly all actives have a fitted effect of over 60% in size
CONDITION INFO: P. falciparum in erythrocytes, SYBR Green DNA, 72 h; series mostly up to 28.7 µM
Records with an inconclusive call do not appear. The source made the active and inactive calls. Calls come from the whole dose curve; as a rule, active = well fitted inhibition curve with a large enough effect; inconclusive = small, poorly fitted or top-dose-only effect; inactive = flat fitted curve, though single readings scatter.
Labels: active, inactive

CCC(C)(Oc1ccc(C2(c3ccc(OC(C)(CC)C(=O)O)cc3)CCCCC2)cc1)C(=O)O (centres undefined) = inactive
CCC1=C(C)CN(C(=O)NCCc2ccc(S(=O)(=O)NC(=O)NC3CCC(C)CC3)cc2)C1=O (centres undefined) = inactive
CCCc1cc(=O)[nH]c(=S)[nH]1 = inactive
O=C(O)CCNC(=O)c1ccc(N=Nc2ccc(O)c(C(=O)O)c2)cc1 = inactive
N=C(N=C(N)N)N1CCOCC1 = inactive
CC1(C)NC(=O)N(c2ccc([N+](=O)[O-])c(C(F)(F)F)c2)C1=O = inactive
Cc1cc(=O)c2c(O)c3c(O)cc(=O)c4c3c3c(cc(O)c1c23)C(C)(C)C=4O = active
O=C(NCCO[N+](=O)[O-])c1cccnc1 = inactive
CCOc1cc(CC(=O)N[C@@H](CC(C)C)c2ccccc2N2CCCCC2)ccc1C(=O)O = inactive
CCCCCCCCCCCCCCCCCCCCCCO = inactive
CCCCN(CCCC)CCC(O)c1cc2c(Cl)cc(Cl)cc2c2cc(C(F)(F)F)ccc12 (centres undefined) = active
C=C(c1ccc(C(=O)O)cc1)c1cc2c(cc1C)C(C)(C)CCC2(C)C = inactive
Cn1c(NCCN(CCO)CCCc2ccc([N+](=O)[O-])cc2)cc(=O)n(C)c1=O = inactive
Cc1nc2n(c(=O)c1CCN1CCC(c3noc4cc(F)ccc34)CC1)CCCC2 = inactive
CS(=O)(=O)OCCCCOS(C)(=O)=O = inactive
CN(C)c1ccc2nc3ccc(=[N+](C)C)cc-3sc2c1 = active
CNC[C@H](O)c1ccc(O)c(O)c1 = inactive
O=C1c2ccccc2-c2n[nH]c3cccc1c23 = inactive
O=C(NC(Cc1cc(=O)[nH]c2ccccc12)C(=O)O)c1ccc(Cl)cc1 (centres undefined) = inactive
Nc1ccc(S(N)(=O)=O)cc1 = inactive
O=C(O)c1cccnc1Nc1cccc(C(F)(F)F)c1 = inactive
Nc1nc(Cl)nc2c1ncn2[C@H]1C[C@H](O)[C@@H](CO)O1 = inactive
Cc1cc2c(s1)Nc1ccccc1N=C2N1CCN(C)CC1 = inactive
Cc1ncc([N+](=O)[O-])n1CC(C)O (centres undefined) = inactive

---

Test system: DIV14
PROTOCOL SUMMARY: qHTS profiling for inhibitors of Plasmodium falciparum proliferation (AID 504749); note: nearly all actives have a fitted effect of over 60% in size
CONDITION INFO: P. falciparum in erythrocytes, SYBR Green DNA, 72 h; series mostly up to 28.7 µM
Results filed as inconclusive are left out. The source made the active and inactive calls. Calls come from the whole dose curve; as a rule, active = well fitted inhibition curve with a large enough effect; inconclusive = small, poorly fitted or top-dose-only effect; inactive = flat fitted curve, though single readings scatter.
Possible outcomes: 1 = active, -1 = inactive

NNc1nncc2ccccc12 = 1
CNC[C@@H](O)[C@@H](O)[C@H](O)[C@H](O)CO = -1
Cc1cc2c(s1)Nc1ccccc1N=C2N1CCN(C)CC1 = -1
Cn1c(NCCN(CCO)CCCc2ccc([N+](=O)[O-])cc2)cc(=O)n(C)c1=O = -1
CN(C)C(=O)COC(=O)Cc1ccc(OC(=O)c2ccc(N=C(N)N)cc2)cc1 = -1
Cc1cc2cc3c(C)cc(=O)oc3c(C)c2o1 = -1
Clc1ccc(C(Cn2ccnc2)OCc2ccsc2Cl)c(Cl)c1 (configuration not stated) = 1
COc1cc(OC)c(C(=O)CCCN2CCCC2)c(OC)c1 = -1
CC(C)c1ccc2oc3nc(N)c(C(=O)O)cc3c(=O)c2c1 = -1
N=C(N=C(N)N)N1CCOCC1 = -1
Nc1cccc2c1CN(C1CCC(=O)NC1=O)C2=O (configuration not stated) = -1
CCOC(=O)c1c(C)n(C)c2ccc(O)cc12 = -1

Every entry's value here was drawn from PubChem BioAssay (NCATS).
